- testedOn: T1, soluble human insulin receptor-immunoglobulin heavy chain chimera (sIR-Fc; Bass et al., 1996) (human, UniProt P06213 28-956, limits assumed)
- T1 construct: extracellular domain; also called soluble IR (Bass construct); not shown: immunoglobulin heavy chain constant domains
- assayInfo: phage ELISA
observedProperty: IR/IGF-1R comparison
Numbers only.

- binder: "RQGTGSFYLMLEQLLVGARGP [20E2B-4-G11-IGFR]"
  numericReadout: 0.1
- binder: "FFYRCLSRLLGGQLGSRLGLSCIGD [20C-3-E4-IGFR]"
  numericReadout: 0.2
- binder: "CCTTEMVVMDARDDPFYHKLSELVTGG [B6Hα-1-B5-IR]"
  numericReadout: 0
- binder: "VGTVAGFYDAIAQLVARASRV [20E2A-3-C7-IGFR]"
  numericReadout: 0.2
- binder: "QPDHSYFYSLLQELVGSEERL [20E2B-4-F9-IGFR]"
  numericReadout: 0.1

Record IR/IGF-1R comparison per entry; entries follow.
1. GNGDGMFYQLLSLLVGRDMHV [20E2B-3-02-IGFR]
2. GCVVEWQKWHGASDPFYHKLSELGGCS [B6Hα-3-F10-IR]
3. FYVQQWGHENFYDWFDRQVSQSGGAG [H2CA-4-F1-IGFR]
4. RFDPFYSYFVNLLGASA [NNRPγ-4-A7-IR]

[0.1, 0.2, 0.3, 0.2]
